# target.entity: AKT1 E17K (Homo sapiens (Human), UniProt P31749, E17K)
# Sequence (P31749 whole entry E17K): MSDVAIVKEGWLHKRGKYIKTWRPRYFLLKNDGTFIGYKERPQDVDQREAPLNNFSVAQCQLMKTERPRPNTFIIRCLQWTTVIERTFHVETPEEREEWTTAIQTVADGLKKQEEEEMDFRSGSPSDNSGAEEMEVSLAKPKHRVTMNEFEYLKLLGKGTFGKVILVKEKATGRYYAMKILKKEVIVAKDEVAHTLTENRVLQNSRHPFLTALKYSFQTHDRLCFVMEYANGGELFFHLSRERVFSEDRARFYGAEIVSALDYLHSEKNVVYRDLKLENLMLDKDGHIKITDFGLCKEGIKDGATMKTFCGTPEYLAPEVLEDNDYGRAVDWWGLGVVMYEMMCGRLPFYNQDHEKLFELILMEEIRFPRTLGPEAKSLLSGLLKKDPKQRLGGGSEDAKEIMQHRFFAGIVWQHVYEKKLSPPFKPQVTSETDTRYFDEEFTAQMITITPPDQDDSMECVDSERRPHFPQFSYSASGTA
# method.notes: Live cell target engagement (NanoBRET) in HEK293 cells
# Format: cell-based
measured.quantity: AKT1 E17K IC50: Selectivity vs AKT2

Reference set, count: 3
Nc1ncccc1-c1nc2ccc(C(F)F)nc2n1-c1ccc(CNC(=O)Cc2ccc(C=O)c(O)c2)cc1 : 110
CC(C)(O)C#Cc1ccc2nc(-c3cccnc3N)n(-c3ccc(CNC(=O)Cc4ccc(C=O)c(O)c4)cc3)c2n1 : 90
Nc1ncccc1-c1nc2ccc(-c3ccccc3)nc2n1-c1ccc(CNC(=O)Cc2cnc(C=O)c(O)c2)cc1 : 39

[a] CC(=O)Nc1c(C=O)ccc(CCNCc2ccc(-n3c(-c4cccnc4N)nc4ccc(-c5ccccc5)nc43)cc2)c1F
[b] Nc1ncccc1-c1nc2ccc(-c3cccnc3)nc2n1-c1ccc(CNC(=O)c2ccc(O)c(C=O)c2)cc1
[c] Nc1ncccc1-c1nc2ccc(-c3ccccc3)nc2n1-c1ccc(CNCCc2ccc(C=O)cc2)cc1
stdin: Arrange these compounds by their AKT1 E17K IC50: Selectivity vs AKT2, starting with the largest number. Thanks in advance for listing the labels in the requested order.
stdout: b, a, c

---

# target.entity: AKT1 E17K (Homo sapiens (Human), UniProt P31749, E17K)
# method.notes: Live cell target engagement (NanoBRET) in HEK293 cells
# Format: cell-based
measured.quantity: AKT1 E17K IC50: Selectivity vs AKT1 WT

Nc1ncccc1-c1nc2cccnc2n1-c1ccc(CNC(=O)C(F)c2ccc(C=O)c(O)c2)cc1 (stereo not shown) : 5.5

[I] Nc1ncccc1-c1nc2ccc(-c3ccccc3)nc2n1-c1ccc(CNc2cc(-c3ccc(C=O)c(O)c3)ccn2)cc1
[II] Nc1ncccc1-c1nc2cccnc2n1-c1ccc(CCC(=O)Nc2ccc(C=O)c(O)c2)cc1
[III] Nc1ncccc1-c1nc2ccc(-c3ccccc3)nc2n1-c1ccc(CCNCc2ccc(C=O)c(O)c2)cc1
stdin: Arrange these compounds by their AKT1 E17K IC50: Selectivity vs AKT1 WT, starting with the largest number. Thanks in advance for listing the labels in the requested order.
stdout: II, III, I

---

# target.entity: UniProtKB P31751
# Sequence (P31751 whole entry): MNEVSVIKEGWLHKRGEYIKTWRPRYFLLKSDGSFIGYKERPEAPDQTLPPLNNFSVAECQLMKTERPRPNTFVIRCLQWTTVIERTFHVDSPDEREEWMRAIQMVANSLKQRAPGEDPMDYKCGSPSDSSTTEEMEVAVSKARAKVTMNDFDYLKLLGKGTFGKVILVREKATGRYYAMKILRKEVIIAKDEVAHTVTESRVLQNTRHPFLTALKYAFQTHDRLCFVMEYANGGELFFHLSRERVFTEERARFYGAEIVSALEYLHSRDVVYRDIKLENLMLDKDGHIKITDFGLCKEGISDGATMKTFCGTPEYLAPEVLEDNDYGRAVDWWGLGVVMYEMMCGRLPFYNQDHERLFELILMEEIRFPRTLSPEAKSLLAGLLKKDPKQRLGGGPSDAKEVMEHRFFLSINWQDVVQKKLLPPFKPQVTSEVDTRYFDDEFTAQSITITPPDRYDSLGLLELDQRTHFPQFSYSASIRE
# method.notes: Live cell target engagement (NanoBRET) in HEK293 cells
# Type: cell-based
# experimental.conditions: HEK293, 2 hours at 37° C.
pIC50: −log10 of the molar value.
measured.quantity: pIC50

Reference set, count: 3
Nc1ncccc1-c1nc2ccc(-c3ccccc3)nc2n1-c1ccc(CNCCCc2ccc(O)c(C=O)c2)cc1 : > 7.00
Nc1ncccc1-c1nc2ccc(-c3ccccc3)nc2n1-c1ccc(CNCCc2cc(O)c(C=O)c(F)c2)cc1 : 6.30 to 7.00
Nc1ncccc1-c1nc2ccc(-c3ccncc3)nc2n1-c1ccc(CNC(=O)Cc2ccc(C=O)c(O)c2)cc1 : < 6.30

stdin: Hello, please tell me recorded pIC50 for this one: Nc1ncccc1-c1nc2ccc(-c3ccccc3)nc2n1-c1ccc(CNC(=O)c2cc(Cl)c(O)c(C=O)c2)cc1
stdout: 6.30 to 7.00

stdin: Hello, please tell me recorded pIC50 for this one: Nc1ncccc1-c1nc2ccc(-c3ccccc3)nc2n1-c1ccc(CNCCc2ccc(C=O)cc2)cc1
stdout: 6.30 to 7.00

stdin: Hello, please tell me recorded pIC50 for this one: Nc1ncccc1-c1nc2ccc(-c3ccc(N4CCOCC4)cc3)nc2n1-c1ccc(CNC(=O)Cc2ccc(C=O)c(O)c2)cc1
stdout: < 6.30

stdin: Hello, please tell me recorded pIC50 for this one: Nc1ncccc1-c1nc2cccnc2n1-c1ccc(CNC(=O)c2ccc(O)c(C=O)n2)cc1
stdout: < 6.30

stdin: Hello, please tell me recorded pIC50 for this one: Nc1ncccc1-c1nc2ccc(-c3ccccc3)nc2n1-c1ccc(C(=O)NCc2ccc(C=O)c(O)c2)cc1
stdout: 6.30 to 7.00

FYI, the data here is from patent US20250115600A1.
